This collection of values is drawn from PubChem BioAssay (Tox21).

testTarget: Estrogen receptor (Homo sapiens)
assayProtocol: qHTS assay to identify small molecule agonists of the estrogen receptor alpha (ER-alpha) signaling pathway in the presence of an antagonist (AID 1259383); note: nearly all actives have a fitted effect of over 15% in size
experimentalParameters: VM7Luc4E2 cells, ERE-luciferase, +ICI-182,780, 22 h; series mostly up to 42.5 µM
The source made the active and inactive calls. Calls come from the whole dose curve.
Your response should consist of one outcome taken from true = active, false = inactive

C/C=C(/C(=C/C)c1ccc(OC(C)=O)cc1)c1ccc(OC(C)=O)cc1: true

Exercise: What did this assay record as the result for `Cc1oc(-c2ccccc2)nc1CCOc1cccc2c1ccn2CCC(=O)O` ?
Solution: false

Exercise: Proceed to `CCCC(=O)Nc1ccc(O)c(C(C)=O)c1`
Solution: false

Exercise: Proceed to `c1cc(CCCc2ccncc2)ccn1`
Solution: false

Exercise: Proceed to `O=S(=O)(Oc1ccc(Cl)cc1)c1ccccc1`
Solution: false

Exercise: Proceed to `CCCn1cnc2c1c(=O)n(CCCCC(C)=O)c(=O)n2C`
Solution: false

Exercise: Proceed to `C[C@@H]1C[C@H]2O[C@@]3(O[C@@H]2C(C)(C)O)[C@H](O)[C@@]2(C)[C@@H]4CC[C@H]5C(C)(C)[C@@H](O[C@@H]6OC[C@@H](O)[C@H](O)[C@H]6O)CC[C@@]56C[C@@]46CC[C@]2(C)[C@@H]13`
Solution: false

Exercise: Proceed to `C[C@H]1C[C@H]2[C@@H]3CCC4=CC(=O)C=C[C@]4(C)[C@@]3(Cl)[C@@H](O)C[C@]2(C)[C@@]1(O)C(=O)CO`
Solution: false

Exercise: Proceed to `O=C(O)c1ccc(S(=O)(=O)O)cc1C(=O)O`
Solution: false

---

assayProtocol: A CellTox Green Cytotoxicity Assay to monitor cytotoxicity in HEK293 cells - 24 hour (AID 1224875); note: nearly all actives have a fitted effect of over 45% in size
experimentalParameters: CellTox Green fluorescence; series mostly up to 76.8 µM
Records with an inconclusive call do not appear. Activity calls are given as the source filed them. Calls come from the whole dose curve; as a rule, active = well fitted activation curve with a large enough effect in the repeat runs; inconclusive = weak or mixed curves; inactive = flat fitted curve, though single readings scatter.
Your response should consist of one outcome taken from yes for active, no for inactive

Worked examples follow.
O=C1[C@H]2CCCC[C@H]2C(=O)N1CCCCN1CCN(c2nsc3ccccc23)CC1: no
CCOC(=O)C(F)(F)F: no
CC(C)(C)Cl: no

Exercise: What did this assay record as the result for `Nc1cccc(S(=O)(=O)c2cccc(N)c2)c1` ?
Solution: no

Exercise: Proceed to `CCCCCCCCCc1ccc(OCCOCCO)cc1`
Solution: yes

Exercise: Proceed to `Nc1cc(C(=O)O)c(O)c(S(=O)(=O)O)c1`
Solution: no

Exercise: Proceed to `Nc1ccc(S(=O)(=O)Nc2ccccc2)cc1`
Solution: no

---

testTarget: Cytochrome P450 2D6 (Homo sapiens) (UniProt P10635)
Sequence (P10635 whole entry, looked up): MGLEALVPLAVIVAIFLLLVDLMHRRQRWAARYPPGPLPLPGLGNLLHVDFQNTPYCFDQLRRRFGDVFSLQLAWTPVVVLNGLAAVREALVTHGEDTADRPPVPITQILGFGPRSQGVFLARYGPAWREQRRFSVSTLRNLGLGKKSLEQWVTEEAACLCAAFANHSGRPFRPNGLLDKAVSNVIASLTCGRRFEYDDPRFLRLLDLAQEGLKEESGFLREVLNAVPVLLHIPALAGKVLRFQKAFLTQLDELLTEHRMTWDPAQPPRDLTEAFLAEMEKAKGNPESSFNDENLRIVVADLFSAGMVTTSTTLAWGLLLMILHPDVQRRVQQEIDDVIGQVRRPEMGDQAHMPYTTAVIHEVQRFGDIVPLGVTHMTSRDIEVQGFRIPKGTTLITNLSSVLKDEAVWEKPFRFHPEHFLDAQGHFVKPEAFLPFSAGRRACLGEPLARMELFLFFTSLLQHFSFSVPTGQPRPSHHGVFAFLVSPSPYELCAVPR
assayProtocol: Cytochrome P450 Family 2 Subfamily D Member 6 (CYP2D6) small molecule antagonists: luciferase reporter qHTS assay (AID 1671196); note: nearly all actives have a fitted effect of over 50% in size
experimentalParameters: P450-Glo CYP2D6 enzyme assay, luciferin luminescence, 1 h; series mostly up to 115 µM
Records with an inconclusive call do not appear. Activity calls are given as the source filed them. The call rests on the fitted dose curve; in most records, active means well fitted inhibition curve with a large enough effect in the repeat runs; inconclusive means weak or mixed curves; inactive means no such curve, though single readings can be large or run the other way.
Your response should consist of one outcome taken from active, inactive

Worked examples follow.
CN(C)CCN(Cc1ccc(Cl)cc1)c1ccccn1: active
CCOC(=O)COC(=O)c1cc(Oc2ccc(C(F)(F)F)cc2Cl)ccc1[N+](=O)[O-]: active
OCCNCc1ccccc1: active
N=c1ccn2c(n1)O[C@H]1[C@H](O)[C@@H](CO)O[C@H]12: inactive
C=CC(=O)OCCOCCOC(=O)C=C: inactive
CCNc1cc(O)ccc1C: active

Exercise: What did this assay record as the result for `O=C(O)c1ccc(S(=O)(=O)O)cc1C(=O)O` ?
Solution: inactive
